All values here come from the supplement of paper PMC12855868.

B1: library; numbered along this chain (parent)
chain: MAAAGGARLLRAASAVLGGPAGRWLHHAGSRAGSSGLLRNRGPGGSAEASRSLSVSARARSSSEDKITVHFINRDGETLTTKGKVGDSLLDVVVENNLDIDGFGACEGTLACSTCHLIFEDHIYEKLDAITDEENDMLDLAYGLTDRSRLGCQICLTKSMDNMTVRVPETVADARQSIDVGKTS

variants of: B1; test: scaled log2 fold change in cell abundance, elesclomol vs control (0 = silent mean, 1 = nonsense mean) (scaled log2 ratio); higher = higher viability under elesclomol (loss of FDX1 cuproptosis function); details: with HEK293T FDX1 KO; elesclomol 40 nM; glucose 10 mM; 11 days;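 also: variant abundance is its share of total variant reads in each endpoint sample, from next-generation sequencing of the integrated ORF PCR-amplified out of genomic DNA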
Each entry below carries its recorded scaled log2 fold change.
Please give the numeric answer without any surrounding text.

[ask] Return scaled log2 fold change for the following variant: `V167Y`
[reply] 0.556

[ask] Return scaled log2 fold change for the following variant: `L25F`
[reply] 0.845

[ask] Return scaled log2 fold change for the following variant: `G143A`
[reply] 1

[ask] Return scaled log2 fold change for the following variant: `V94C`
[reply] 0.199

[ask] Return scaled log2 fold change for the following variant: `G76A`
[reply] -0.122

[ask] Return scaled log2 fold change for the following variant: `L138Y`
[reply] -0.246

[ask] Return scaled log2 fold change for the following variant: `V69T`
[reply] 0.953
